Target: Fructose-bisphosphate aldolase (Giardia intestinalis (strain ATCC 50803 / WB clone C6)) (UniProt A8B2U2)
Sequence (A8B2U2 whole entry, looked up): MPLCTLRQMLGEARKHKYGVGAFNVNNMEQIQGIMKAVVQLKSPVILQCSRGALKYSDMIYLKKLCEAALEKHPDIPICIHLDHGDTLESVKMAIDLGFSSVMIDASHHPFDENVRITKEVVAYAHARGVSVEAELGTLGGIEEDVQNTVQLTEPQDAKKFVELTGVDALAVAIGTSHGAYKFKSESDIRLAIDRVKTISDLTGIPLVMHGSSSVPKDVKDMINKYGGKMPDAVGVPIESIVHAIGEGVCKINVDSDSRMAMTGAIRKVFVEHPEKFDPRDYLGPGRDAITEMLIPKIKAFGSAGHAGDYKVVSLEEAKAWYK
Assay: qHTS Assay for Inhibitors of Fructose-1,6-bisphosphate Aldolase from Giardia Lamblia; further: nearly all actives have a fitted effect of over 55% in size
Settings: purified Giardia FBPA; series mostly up to 59.6 µM
Among all 290,000 compounds or so, about 2,100 (0.72%) were called active. About 4% were inconclusive and are not listed. The call rests on the fitted dose curve; in most records, active means well fitted inhibition curve with a large enough effect; inconclusive means small, poorly fitted or top-dose-only effect, or effect the other way; inactive means flat fitted curve, though single readings scatter. Only a selection was taken, and actives are over-represented in it overall.
Possible outcomes: 1 for active, 0 for inactive

GIVEN_SMILES: COc1ccccc1NC(=O)N1C[C@@H]2C[C@@H](C1)c1cccc(=O)n1C2
CLASS: 0

GIVEN_SMILES: Cc1ccc(C(=O)Nc2nnc(C3=COCCO3)o2)cc1C
CLASS: 1

GIVEN_SMILES: Cc1cc(C)cc(N(CC(=O)NC2CCCC2)C(=O)CCC(=O)Nc2nccs2)c1
CLASS: 0
